pEC50 for assorted molecules
- measurement target: human M1 receptors (Homo sapiens, UniProt P11229)
- Sequence (P11229 whole entry): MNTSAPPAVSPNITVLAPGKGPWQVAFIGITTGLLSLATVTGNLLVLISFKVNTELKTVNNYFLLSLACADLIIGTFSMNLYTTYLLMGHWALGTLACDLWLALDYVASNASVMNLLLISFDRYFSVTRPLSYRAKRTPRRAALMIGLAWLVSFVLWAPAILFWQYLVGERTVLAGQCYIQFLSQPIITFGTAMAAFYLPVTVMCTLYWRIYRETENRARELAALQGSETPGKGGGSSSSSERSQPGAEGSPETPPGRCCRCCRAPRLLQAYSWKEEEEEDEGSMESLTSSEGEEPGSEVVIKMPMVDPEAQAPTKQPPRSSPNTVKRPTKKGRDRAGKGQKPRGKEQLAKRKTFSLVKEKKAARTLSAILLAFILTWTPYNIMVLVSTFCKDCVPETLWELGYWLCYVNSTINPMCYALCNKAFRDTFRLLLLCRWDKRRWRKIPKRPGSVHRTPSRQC
- assay remarks: ERK1/2 phosphorylation
- Format: cell-based
- condition details: read-out: ERK EC50; hM1 CHO cells; 5 min agonist
pEC50: −log10 of the molar value.

| compound string | measurement target | pEC50 |
| --- | --- | --- |
| CCOC(=O)N1CCC(N2CCC[C@@H](NC(=O)c3ccccc3C)C2)CC1 | human M1 receptors (Homo sapiens, UniProt P11229) | 5.00 |
| CCOC(=O)N1CCC(NCCNC(=O)c2ccccc2C)CC1.Cl | human M1 receptors (Homo sapiens, UniProt P11229) | 4.43 |
